Data credit: paper PMC9330179

Biological target: cathepsin B (Homo sapiens, UniProt P07858)

{"columns": ["smiles.text", "IC50"],
 "data": [
  ["CCCCC/C=C\\C/C=C\\C=C/C#CCCCC(=O)O", "16 µM"]
]}
